Collected literature values of pIC50 measured for HPK1 (Homo sapiens (Human), UniProt Q92918).
// pIC50 is dimensionless: -log10 of concentration (M)

Query `Cc1cc(-c2cnc(N)c(OCc3ccnc(C#CC(C)(C)O)c3)n2)cc2c1CCN(C)C2` yields pIC50 of 8.03

The reported value for CCC1COC(=O)N1c1ccc2cnc(Nc3cc4c(cc3OC)CCN(C)C4)nc2c1 (single isomer, unassigned) in terms of pIC50 is 7.61

Per the records, this compound ( COc1cc2c(cc1Nc1ncc(C(N)=O)c(Nc3ccccc3Br)n1)CN(C1CC(C(=O)O)C1)CC2 (stereo not shown) ) has pIC50 equal to 8.80
